biological target: T1, Pf41 D1D2 (residues 21-368), untagged (Plasmodium falciparum, UniProt Q8I1Y0); assay: BLI; Octet RED96e; nanobodies loaded on NTA sensors; untagged Pf12 or Pf41 (6-200 nM) or their domains in solution; PBS pH 7.4, 0.1% BSA, 0.05% TWEEN-20, 25°C; global 1:1 fit; settings: both partners purified
T1 construct: Pf41, Plasmodium falciparum 6-cysteine protein, residues K21-S368 (D1 with the inserted-domain-like region ID, and D2); lacks the signal peptide and ten C-terminal residues; After TEV cleavage three residues, GAS, remain at the N-terminus as cloning artefacts; N-glycosylation sites kept; treated with PNGase F before crystallisation; also called Pf41 wildtype; source: Spodoptera frugiperda 21 …
T1 sequence (Q8I1Y0 21-368): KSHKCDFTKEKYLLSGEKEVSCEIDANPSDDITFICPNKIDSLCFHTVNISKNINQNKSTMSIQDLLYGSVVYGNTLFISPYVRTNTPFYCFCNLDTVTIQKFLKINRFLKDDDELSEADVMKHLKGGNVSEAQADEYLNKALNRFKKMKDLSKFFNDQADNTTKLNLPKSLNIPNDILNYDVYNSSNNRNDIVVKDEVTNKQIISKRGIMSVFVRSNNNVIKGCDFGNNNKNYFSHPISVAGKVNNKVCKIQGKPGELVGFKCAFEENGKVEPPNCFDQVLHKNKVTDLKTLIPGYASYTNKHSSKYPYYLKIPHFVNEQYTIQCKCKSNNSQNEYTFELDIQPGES
property-label: binding result

nanobody G7 (VHH, alpaca, immunised with Pf12-Pf41 complex; Pf12-specific; also called Nb G7; source: E. coli WK6, periplasmic extract, purified (HisTrap, SEC)) VHH: QVQLQESGGGLVQAGGSLRLSCAASGRTFSSYGMGWFRQAPGTEREFVAAISWSGDSTYYADSVKGRFTISIDKAKNTVYLQMNSLKPEDTAVYYCAADHALVVGGTYNYWGQGTQVTVSS: no binding
nanobody A10 (VHH, alpaca, immunised with Pf12-Pf41 complex; Pf12-specific; source: E. coli WK6, periplasmic extract, purified (HisTrap, SEC)) VHH: QVQLQESGGGFVQPGGSLRLSCAASGFTLDYYFIGWFRQAPGKEREGVSCISSSDGSTYYAESVKGRFTISRDNAKNTVYLQMNSLKPEDTAVYYCATDKIVCSSDFIVDYGMDSRGKGTQVTVSS: no binding
nanobody C12 (VHH, alpaca, immunised with Pf12-Pf41 complex; Pf12-specific; source: E. coli WK6, periplasmic extract, purified (HisTrap, SEC)) VHH: QVQLQESGGGLVQAGGSLRLSCAASGRTFSSYSMGWFRQAPGKQRELVAAISSGGSTDYTDSVKGRFTISRDNAKNTVYLQMNSLKPEDTAVYYCAAGDYSDYVGMWDIWGQGTQVTVSS: no binding
nanobody C1 (VHH, alpaca, immunised with Pf12-Pf41 complex; Pf12-specific; source: E. coli WK6, periplasmic extract, purified (HisTrap, SEC)) VHH: QVQLQESGGGLVQPGASLRLSCTVSGIIMADHAIGWFRQAPGKEREGIACFIRSDGTTYYSDSAKGRFTISRDNAKNTVYLQMNSLKPEDTADYYCATGKIVCANGFIVDYGSDYRGKGTQVTVSS: no binding
nanobody A11 (VHH, alpaca, immunised with Pf12-Pf41 complex; Pf12-specific; source: E. coli WK6, periplasmic extract, purified (HisTrap, SEC)) VHH: QVQLQESGGGLVQPGGSLRLSCAASGFTFDDYAIGWFRQAPGKEREGVSCIMSSDGSAYYADSVKGRFTISRDNAKNTVYLQMNSLRPEDTANYYCATDKIVCSTGFIVDYGMHYGGKGTQVTVSS: no binding
nanobody A6 (VHH, alpaca, immunised with Pf12-Pf41 complex; Pf41-specific; source: E. coli WK6, periplasmic extract, purified (HisTrap, SEC)) VHH: QVQLQESGGGLVQPGGSLRLSCAASGGTIRSDGMGWFRQVPKKEREFVGMITYMGPVYTADSVEGRFAISRDNVKNTVYLQMNNLQPEDTAVYYCAVHVGGIYYYEGSYEYWGQGTQVTVSS: binds
nanobody H9 (VHH, alpaca, immunised with Pf12-Pf41 complex; Pf12-specific; source: E. coli WK6, periplasmic extract, purified (HisTrap, SEC)) VHH: QVQLQESGGGLVQPGGSLRLSCAASGFTLDYYAIGWFRQAPGKEREGVSCIMSSDGSTYYADSVKGRFTISRDNAVNTVYLQMNGLKPEDTAVYYCATDKIVCGSGFIVDYGTDYRGKGTQVTVSS: no binding
nanobody G12 (VHH, alpaca, immunised with Pf12-Pf41 complex; Pf41-specific; source: E. coli WK6, periplasmic extract, purified (HisTrap, SEC)) VHH: QVQLQESGGGLVQPGGSLRLSCAASGGTIRSDSMGWFRQVPKKEREFVGMLTYMGPVYTADSVKGRFAISRDNVKNTVYLQMNNLQPDDTAVYYCAVHVSGVYYYEDSYRYWGQGTQVTVSS: binds
nanobody A3 (VHH, alpaca, immunised with Pf12-Pf41 complex; Pf12-specific; source: E. coli WK6, periplasmic extract, purified (HisTrap, SEC)) VHH: QVQLQESGGGLVQAGGSLRLSCAASGRTFSNYAMGWFRQAPGKEREFVAAITWSGDSTYYGDSVKGRFTISRDNAKSTAYLQMNSLKPEDTAVYYCAADEAVVTTTLQWDYWGQGTQVTVSS: no binding
nanobody C9 (VHH, alpaca, immunised with Pf12-Pf41 complex; Pf12-specific; source: E. coli WK6, periplasmic extract, purified (HisTrap, SEC)) VHH: QVQLQESGGGLVQPGGSLRLSCAASGFTLDYYAIGWFRQAPGKEREGVSCISSSGGSTYYADSVKGRSTISRDNAKNTVYLQMNSLKPEDTAVYYCATDCLRDYGLEYVPGRYDYWGQGTQVTVSS: no binding
nanobody H11 (VHH, alpaca, immunised with Pf12-Pf41 complex; Pf12-specific; source: E. coli WK6, periplasmic extract, purified (HisTrap, SEC)) VHH: QVQLQESGGGLVQPGGSLRLSCAGSGFTLDHYAIGWFRQAPGKEREGVSCIISSDSSTYYTDSVKGRFTISRDNAKNTVYLQMNSLKPEDTAVYYCATEKIVCASGFIVDYGMDYCGKGTQVTVSS: no binding
nanobody D12 (VHH, alpaca, immunised with Pf12-Pf41 complex; Pf12-specific; source: E. coli WK6, periplasmic extract, purified (HisTrap, SEC)) VHH: QVQLQESGGGLVEAGGSLRLSCAASTRTFSSLVMGWFRQAPGKERELVAAISRSGDSTDYTDSVKGRFTISRDNAKNTVYLQMNSLKPEDTAVYSCAADPTGVDSSLAVGLWVYWGQGTQVTVSS: no binding
nanobody B11 (VHH, alpaca, immunised with Pf12-Pf41 complex; Pf12-specific; source: E. coli WK6, periplasmic extract, purified (HisTrap, SEC)) VHH: QVQLQESGGGLVQAGGSLRLSCAASGRTFSSYAMGWFRQAPGKEREFVAAISWNGGRTYYADSVKGRFTISRDNAKNTVYLQMNSLKPEDTAVYYCAADPTGTVDDETGIYVYWGQGTQVTVSS: no binding
nanobody H2 (VHH, alpaca, immunised with Pf12-Pf41 complex; Pf12-specific (D1 domain); source: E. coli WK6, periplasmic extract, purified (HisTrap, SEC)) VHH: QVQLQESGGGSVQAGGSLRLSCTTSRRTRNTHAMGWFRQAPGKEREFVAAISWIDSSTYYADSVKGRFTMSGGNARNTVYLQMNSLEPEDTAVYYCAAGSVVAGFWEEVGYDYWGQGTQVTVSS: no binding
nanobody G11 (VHH, alpaca, immunised with Pf12-Pf41 complex; Pf41-specific; source: E. coli WK6, periplasmic extract, purified (HisTrap, SEC)) VHH: QVQLQESGGGLVQPGGSLRLSCAASGGTIRSDSMGWFRQVPKKEREFVGMITYMGPVYTADSVKGRFTISRDNVKNTVYLQMNNLQPEDAAVYYCAVHISGLYYYEASYKYWGQGTQVTVSS: binds
nanobody B5 (VHH, alpaca, immunised with Pf12-Pf41 complex; Pf12-specific; The 'Nb B5 of PDB ID 7KJH' used as a search model may be another nanobody of the same label; source: E. coli WK6, periplasmic extract, purified (HisTrap, SEC)) VHH: QVQLQESGGGLVQPGGSLRLSCAASGFTLDEYAMGWFRQAPGKEREGISCISSSDGTTFYADSVKGRFTISRDNAKNTVYLQMNSLKPEDTAVYYCATDCVGSYSRYWGQGTQVTVSS: no binding
